pIC50 tested on neuraminidase (UniProt P03468): recorded values
Sequence (P03468 whole entry): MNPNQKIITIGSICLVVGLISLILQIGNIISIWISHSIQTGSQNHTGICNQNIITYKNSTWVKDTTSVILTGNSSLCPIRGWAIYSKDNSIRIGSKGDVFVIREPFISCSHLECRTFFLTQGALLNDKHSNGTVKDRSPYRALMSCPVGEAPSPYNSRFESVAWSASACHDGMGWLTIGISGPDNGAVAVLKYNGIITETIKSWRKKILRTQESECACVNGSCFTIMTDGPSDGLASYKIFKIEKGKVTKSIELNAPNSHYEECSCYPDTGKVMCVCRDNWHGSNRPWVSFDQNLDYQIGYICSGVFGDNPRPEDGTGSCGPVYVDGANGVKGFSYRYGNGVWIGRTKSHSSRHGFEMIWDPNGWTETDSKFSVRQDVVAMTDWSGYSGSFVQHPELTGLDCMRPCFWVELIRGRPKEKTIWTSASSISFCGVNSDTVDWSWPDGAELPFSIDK
pIC50: −log10 of the molar value.

query.smiles: CC(=O)N[C@H]1[C@H](O)C=C(C(=O)O)C[C@@H]1N=C(N)N
study.system: neuraminidase (UniProt P03468)
recorded.result: > 6.00

From here, focus on the item given below.
Req: Consider the compound COCO[C@@H]1C=C(C(=O)O)C[C@H](N)[C@H]1NC(C)=O and give its measured pIC50.
Resp: 5.00 to 6.00

Data origin, for the record: patent US20040053999A1
